Biological target: T1, ROR1 extracellular segment with Frizzled domain removed on CHO cells (human, UniProt Q01973 30-472, limits assumed)
T1 construct: Transfected into CHO cells; also called CHO-ROR1 (with Frizzled domain removed)
T1 sequence (Q01973 other isoform, or with tags, fused parts or gaps limits assumed): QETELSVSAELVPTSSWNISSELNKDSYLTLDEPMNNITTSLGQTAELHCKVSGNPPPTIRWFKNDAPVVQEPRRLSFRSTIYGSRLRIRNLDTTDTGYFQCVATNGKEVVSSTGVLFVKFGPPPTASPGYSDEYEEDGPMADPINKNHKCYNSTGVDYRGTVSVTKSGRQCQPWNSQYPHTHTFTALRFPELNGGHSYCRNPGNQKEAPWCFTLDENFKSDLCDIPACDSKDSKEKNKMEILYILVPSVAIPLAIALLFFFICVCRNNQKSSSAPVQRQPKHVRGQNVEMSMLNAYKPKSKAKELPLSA
Test: FACS, CHO-ROR1 (with Frizzled domain removed) cells
Assay metric: pEC50
pEC50 (log units): -log10 of the concentration in mol/L.

Binder	Result value
mAb006c (antibody, V domains shown, Human-mouse chimeric) VH: EVQLQQSGPELVKPGASLKMSCKASGYTFPDYNIHWVKQSHGKSLEWIGYINPNNGGTTYNQKFKGKATLTVSKSSSTAYMELRSLTSEDSAVYSCARRGYGSSYAMDYWAQGTSVTVSS VL: DVLMTQSPLSLPVSLGDQASISCRSSHIIVHTNGNTYLEWYLQKPGQSPKLLIYKVSNRFSGVPDRFSGSGSGTDFTLKISRVEAEDLGVYYCFQGSRVPYTFGGGTKLEIK	8.79

Now let's try a different one.
Request: Report pEC50 for mAb003c (antibody, V domains shown, Human-mouse chimeric) VH: EVQLVESGGGLVKPGGSLKLSCAASGFTFSSYAMSWVRQTPEKRLEWVATISDGGSYTYYPDSVKGRFTISRDNAKNNLYLQMSHLKSEDTDMYYCVRGGYYYNLYAMDYWGQGTSVTVSS VL: DIVLTQSPASLAVSLGQRAIISCKASQSVSFAGTSLMHWYQQKPGQQPKLLIYRASNLEAGVPTRFSGSGSRADFTLNIHPVEEDDAATYYCQQSGEYPWTFGGGTKLEIK please.
Result: 8.75
